Please go through the items and note down their protein stability index.
# Method: protein stability index of a GFP-peptide fusion (yeast GPS) (PSI 1-4); higher = more stable; sorted into four equal gates, so the index is relative within each strain
# Reported conditions: doa10∆
Field format: numeric only.

Note protein stability index for the sequence shown: RHFWGLRVRGQHTKTTG [RPS18A]
1.81

Note protein stability index for the sequence shown: TAIGIATKEGVVLGVEK [PUP2]
3.15

Note protein stability index for the sequence shown: KDLFELERYYKEQADIY [ARP7]
3.11

Note protein stability index for the sequence shown: GKTYMGWWGHMGGPKQK [QCR8]
1.88

Note protein stability index for the sequence shown: DEDESQNIAQSSNQSAP [HRT1]
2.99

Note protein stability index for the sequence shown: EDRNKIHQYLFQEGVVV [RPS10A]
2.37

Note protein stability index for the sequence shown: RTLNIQPEVAVKAAINF [YIL149C/MLP2]
2.19

Note protein stability index for the sequence shown: SASSKEFNFTNLQAKPL [YAR002W/NUP60]
2.43

Note protein stability index for the sequence shown: NLNAFVDFSKYNTNFNL [SRP72]
3.19

Note protein stability index for the sequence shown: LEELAETFQDTFSGALG [FAS2]
2.95

Note protein stability index for the sequence shown: VSKMEKAEKTLKSTKHS [SMC4]
2.69

Note protein stability index for the sequence shown: VLAKRMANLSQIYTQRA [SCL1]
2.52

Note protein stability index for the sequence shown: SRKRAKKMTKKAKRSNL [PRP8]
2.94

Note protein stability index for the sequence shown: LAAVPAAGPASAGGAAA [RPP2A]
2.35

====

# Method: protein stability index of a GFP-peptide fusion (yeast GPS) (PSI 1-4); higher = more stable; sorted into four equal gates, so the index is relative within each strain
# Reported conditions: pdr5∆
Please go through the items and note down their protein stability index.
Field format: numeric only.

Note protein stability index for the sequence shown: EEATTEEAGEEEAKEEV [RPS0A]
2.78

Note protein stability index for the sequence shown: RESFEDNVVRFLNEARD [RPO21]
2.98

Note protein stability index for the sequence shown: EQISNNSNQQQNPKLFQ [SIN4]
2.67

Note protein stability index for the sequence shown: AERDSQGGFYKQQDAEE [UBP6]
3.38

Note protein stability index for the sequence shown: GALVDRTQPWSIMPDLY [RPS0A]
2.82

Note protein stability index for the sequence shown: NRLSNPQKNLLLKGPAS [YOR098C/NUP1]
3.05

Note protein stability index for the sequence shown: CNQMENLLESITKLLEI [YCS4]
2.8

Note protein stability index for the sequence shown: ELPKFILSDSPLELSAP [DIS3]
3.37

Note protein stability index for the sequence shown: LSIAIVGKDTPFTIYDG [PRE5]
2.94

Note protein stability index for the sequence shown: ASFNDTFVHVTDLSGKE [RPS14A]
1.36

Note protein stability index for the sequence shown: ISTGGFMSNDGPTLEKY [SNU114]
2.57

Note protein stability index for the sequence shown: ISVTDTEVERAKSLLKL [COR1]
3.26

Note protein stability index for the sequence shown: FQYVIDESSGTSRIDEE [SMC4]
2.86

Note protein stability index for the sequence shown: KLLKSLKNTKYFQQTTI [PRP8]
2.7

Note protein stability index for the sequence shown: LYNFLHKYVLTLQLYMV [RGR1]
1.43

Note protein stability index for the sequence shown: FKKTLRSRISSPHGLIN [SRB4]
2.15

Note protein stability index for the sequence shown: GAALKDIEIVRVNKNAP [FAS2]
3.24

Note protein stability index for the sequence shown: SEHDKKRLSAALSKFLT [YML103C/NUP188]
3.08

Note protein stability index for the sequence shown: HPKIVKKHTKKFKRHHS [RPL32]
3.06

Note protein stability index for the sequence shown: TITIKSYHLWPSFTDEQ [PRP8]
2.81

Note protein stability index for the sequence shown: LYDHWDKYHEQWIKFLL [SSN8]
3.1

Note protein stability index for the sequence shown: LSGGQKTVCAIALILAI [SMC3]
1.94

Note protein stability index for the sequence shown: TPRGNHWMGSSVSGSPR [YMR129W/POM152]
3.39

Note protein stability index for the sequence shown: ETYGSMEMSEKIQFILE [RPN5]
2.94

Note protein stability index for the sequence shown: FSHLAGGKIINKLGNDP [BRR2]
3.1

Note protein stability index for the sequence shown: GILGNKAQAKMDKRAKT [RPL8B]
3.48

Note protein stability index for the sequence shown: LKDLNLTVSIKIALMNI [RGR1]
1.66

Note protein stability index for the sequence shown: VLLHGASLGIGLAAMGS [RPN2]
1.9

Note protein stability index for the sequence shown: WKPNPSYDVENVNSRNQ [SRB5]
2.95

Note protein stability index for the sequence shown: DSNYKWDLSVEDALYLG [PRE2]
3.35

Note protein stability index for the sequence shown: KSKAEELTQVPSARQKY [UBP6]
2.81

Note protein stability index for the sequence shown: SSFVRQELAKSIRSRRP [PRE1]
2.21

Note protein stability index for the sequence shown: KATLELLKLIEPYVAYG [RPL7A]
3.24

Note protein stability index for the sequence shown: NYYYLFDKKSFFNGKAL [PRP8]
2.16

Note protein stability index for the sequence shown: AGVQGSKVSKQQAKGAF [RPL24B]
3.21

Note protein stability index for the sequence shown: NATEVQKESDAKNETNS [ITC1]
3.05

Note protein stability index for the sequence shown: MTIPHMKYAVSKTSENK [SIR2]
3.07

Note protein stability index for the sequence shown: RIMSRNFYLKRFISDLL [SWI1]
2.37

Note protein stability index for the sequence shown: SLAGFHKVQTKLTRELE [RPS7A]
1.98

Note protein stability index for the sequence shown: ILNLLNILTTHLSHPGT [ECM29]
1.75

Note protein stability index for the sequence shown: TSAVELGAIEQILIFAA [YJL039C/NUP192]
2.77

Note protein stability index for the sequence shown: GSAITGPVGKECADLWP [RPL23A]
2.75

Note protein stability index for the sequence shown: PTQTKGNDAKPAKVEDV [YLR335W/NUP2]
3.25

Note protein stability index for the sequence shown: NEAPPKTSLADWQKEDG [YMR153W/NUP53]
3.14

Note protein stability index for the sequence shown: RFVLSDDYSNLKREERQ [SMC3]
2.65

Note protein stability index for the sequence shown: MPRLEEIDDFNDIDDLD [SEC65]
3.09

Note protein stability index for the sequence shown: VYANNPEVSDDGGLEEE [SIR3]
2.87

Note protein stability index for the sequence shown: KPLGLDRYGNRYFWLDH [ITC1]
3.02

Note protein stability index for the sequence shown: SELNEGNLSKREIQIDA [SRB8]
2.88

Note protein stability index for the sequence shown: QINKAQILENYNALFQQ [YJL039C/NUP192]
3.12

Note protein stability index for the sequence shown: KRFNIGADPNYRTYSER [RPR2]
3.4

Note protein stability index for the sequence shown: EMIDSHIKEASEEVDDL [SNF2]
2.81

Note protein stability index for the sequence shown: SLDIRHDFIKGLIMLNL [NUT1]
1.56

Note protein stability index for the sequence shown: SSSDFRLHYYPKDPSNV [BRR2]
3.29

Note protein stability index for the sequence shown: MSVKPIDNYITNSVRLF [SRP21]
1.91

Note protein stability index for the sequence shown: FNDSQAIVCYILFELYK [SRP72]
2.31

Note protein stability index for the sequence shown: RGIPRISTLFQRDRHTL [PRP8]
2.66

Note protein stability index for the sequence shown: NAARKAEASGEAAEEAE [RPS9B]
3.39

Note protein stability index for the sequence shown: EGNQGSLQEDVSFDFNG [MED8]
3.41

Note protein stability index for the sequence shown: AEEKREAVIDEKLEVIA [ITC1]
2.62

====

Please go through the items and note down their protein stability index.
# Method: protein stability index of a GFP-peptide fusion (yeast GPS) (PSI 1-4); higher = more stable; sorted into four equal gates, so the index is relative within each strain
# Reported conditions: pdr5∆
Field format: numeric only.

Note protein stability index for the sequence shown: EVLEKDAAIVKKYKNKT [YGR119C/NUP57]
3.24

Note protein stability index for the sequence shown: YSIPHPSENLLNIRIQT [RPC19]
2.21

Note protein stability index for the sequence shown: GNSFHLMRELLKMMKLI [PRP8]
2.41

Note protein stability index for the sequence shown: THTEQNNPPKPQKPVPL [SNF2]
3.34

Note protein stability index for the sequence shown: EEDFYTVVGNASFGKNL [DSN1]
1.38

Note protein stability index for the sequence shown: KVISSDARGVIGVIAGG [RPL2A]
2.82

Note protein stability index for the sequence shown: MERFSVLCNSNISKSRA [RRP6]
2.46

Note protein stability index for the sequence shown: TELLNIYDSEDPQQVFD [RPN3]
3.13

Note protein stability index for the sequence shown: ANKEKRAIILERNAAYQ [RPL7A]
1.38

Note protein stability index for the sequence shown: NPHDTLNRIKKYLLTQR [PRP8]
2.14

Note protein stability index for the sequence shown: QARIILNHILEKSTQLQ [YGR119C/NUP57]
3.09

Note protein stability index for the sequence shown: ARIIRSELLARDIFQED [RGR1]
2.4

Note protein stability index for the sequence shown: TKQIQSVRIDGRKVLQK [SIR4]
2.48

Note protein stability index for the sequence shown: FHAEPSGTFYRYNAKAI [PUP2]
1.81
